Entry source: patent US20160083391A1

Test system: PDE1
Experiment: In vitro HTRF PDE1 inhibition assay
Assay type: biochemical
Details: HTRF cGMP assay, 100 nM cyclic GMP, PDE (1A3, 1B or 1C) with calmodulin, 45 minutes at 37° C.; isoform of the tabulated values not stated
pIC50: −log10 of the molar value.
measurement_name: pIC50

The following compounds have reported results that may help.
CC(C)n1ncc2c(=O)n3c(nc21)CN(c1ccc(Cl)cc1)CC3 ... > 6.00
O=c1c2cnn(C3CCCC3)c2nc2n1CCN(c1ccccc1Cl)C2 ... 5.00 to 6.00

# input compound: CC(C)c1n[nH]c2c(=O)n3c(nc12)C(Cc1ccccc1)N(C)CC3 (racemic) ; wanted: its pIC50
< 5.00

Likewise for `COc1ccc(CN2CCn3c(nc4c(C5CCCC5)noc4c3=O)C2)cc1` ?
5.00 to 6.00
